Experiment: First-in-human phase 1 study: pharmacokinetics parameters of GDC-0853 (plasma) on day 1 and day 15
Assay type: in vivo
Conditions: human, plasma; 200 mg (n = 9), cohort 2, day 1; read-out: Day 1 AUC0-inf Mean (%CV)
Parameter: AUC(0-inf) (µM·h)
Give the quantity in µM·h, number only.

Q: So what's the measured AUC(0-inf) for this one? C[C@H]1CN(C2COC2)CCN1c1ccc(Nc2cc(-c3ccnc(N4CCn5c(cc6c5CC(C)(C)C6)C4=O)c3CO)cn(C)c2=O)nc1
Ans: 3.42

----------
Assay: First-in-human phase 1 study: pharmacokinetics parameters of GDC-0853 (plasma) on day 1 and day 15
Format: in vivo
Conditions: human, plasma, 100 mg, 100 mg (n = 6), cohort 1, day 1, plasma; read-out: Day 1 Cmax Mean (%CV)
Parameter: Cmax (nM)
Answer with a number only, understood to be in nM.

Q: // returns reported Cmax for input C[C@H]1CN(C2COC2)CCN1c1ccc(Nc2cc(-c3ccnc(N4CCn5c(cc6c5CC(C)(C)C6)C4=O)c3CO)cn(C)c2=O)nc1
Ans: 119

----------
Experiment: First-in-human phase 1 study: pharmacokinetics parameters of GDC-0853 (plasma) on day 1 and day 15
Assay type: in vivo
Conditions: human, plasma, 200 mg, 200 mg (n = 9), cohort 2, day 1; read-out: Day 1 AUC0-24 Mean (%CV)
Parameter: AUC(0-t) (µM·h)
State the answer as a number, implicitly in µM·h.

Q: Request the reported AUC(0-t) associated with C[C@H]1CN(C2COC2)CCN1c1ccc(Nc2cc(-c3ccnc(N4CCn5c(cc6c5CC(C)(C)C6)C4=O)c3CO)cn(C)c2=O)nc1 [GDC-0853]
Ans: 2.54

----------
Test: First-in-human phase 1 study: pharmacokinetics parameters of GDC-0853 (plasma) on day 1 and day 15
Type: in vivo
Settings: human, plasma, 200 mg, 200 mg (n = 9), cohort 2, day 15, plasma; read-out: Day 15 Cmax Mean (%CV)
Parameter: Cmax
Please make sure the unit comes right after the number.

Q: Record request: Cmax value, item C[C@H]1CN(C2COC2)CCN1c1ccc(Nc2cc(-c3ccnc(N4CCn5c(cc6c5CC(C)(C)C6)C4=O)c3CO)cn(C)c2=O)nc1 [GDC-0853]
Ans: 614 nM

----------
Assay: First-in-human phase 1 study: pharmacokinetics parameters of GDC-0853 (plasma) on day 1 and day 15
Format: in vivo
Settings: human, plasma, 200 mg, 200 mg (n = 9), cohort 2, day 15; read-out: Day 15 AUC0-24 Mean (%CV)
Parameter: AUC(0-t) (µM·h)
Give the number; µM·h is assumed, so skip it.

Q: Would you kindly share the measured AUC(0-t) for C[C@H]1CN(C2COC2)CCN1c1ccc(Nc2cc(-c3ccnc(N4CCn5c(cc6c5CC(C)(C)C6)C4=O)c3CO)cn(C)c2=O)nc1 [GDC-0853] ?
Ans: 2.83

----------
Experiment: First-in-human phase 1 study: pharmacokinetics parameters of GDC-0853 (plasma) on day 1 and day 15
Type: in vivo
Conditions: human, plasma; 200 mg (n = 9), cohort 2, day 15; read-out: Day 15 Tmax Median (range)
Parameter: Tmax
Enter the number, and then the unit.

Q: Quick one: Tmax of C[C@H]1CN(C2COC2)CCN1c1ccc(Nc2cc(-c3ccnc(N4CCn5c(cc6c5CC(C)(C)C6)C4=O)c3CO)cn(C)c2=O)nc1 [GDC-0853] ?
Ans: 2.1 h

----------
Assay: First-in-human phase 1 study: pharmacokinetics parameters of GDC-0853 (plasma) on day 1 and day 15
Format: in vivo
Settings: human, plasma, 100 mg, 100 mg (n = 6), cohort 1, day 15; read-out: Day 15 AUC0-24 Mean (%CV)
Source text: Table 3 Summary of pharmacokinetics parameters for GDC-0853 on day 1 and day 15 (cohorts 1, 2, and 3, with 100, 200, and 400-mg GDC-0853, respectively) | column: Day 1 T1/2 (hr) Mean (%CV); Day 1 Tmax^a (hr) Median (range); Day 1 Cmax (μM) Mean (%CV); Day 1 AUC0-inf (hr•μM) Mean (%CV); Day 1 AUC0-24 (hr*μM) Mean (%CV); Day 15 Tmax^a(hr) Median (range); Day 15 Cmax (μM) Mean (%CV); Day 15 AUC0- 24 (hr•μM) Mean (%CV); Day 15 Accumulation Ratio Mean (%CV)
Parameter: AUC(0-t) (µM·h)
Write it as a number; the unit µM·h goes unstated.

Q: Data request, read-out AUC(0-t), for C[C@H]1CN(C2COC2)CCN1c1ccc(Nc2cc(-c3ccnc(N4CCn5c(cc6c5CC(C)(C)C6)C4=O)c3CO)cn(C)c2=O)nc1
Ans: 1.2

----------
Experiment: First-in-human phase 1 study: pharmacokinetics parameters of GDC-0853 (plasma) on day 1 and day 15
Type: in vivo
Settings: human, plasma, 400 mg, 400 mg (n = 9), cohort 3, day 15; read-out: Day 15 AUC0-24 Mean (%CV)
Parameter: AUC(0-t) (µM·h)
Unit µM·h implied. Number only.

Q: // query AUC(0-t) value for entry C[C@H]1CN(C2COC2)CCN1c1ccc(Nc2cc(-c3ccnc(N4CCn5c(cc6c5CC(C)(C)C6)C4=O)c3CO)cn(C)c2=O)nc1
Ans: 7.74

----------
Experiment: First-in-human phase 1 study: pharmacokinetics parameters of GDC-0853 (plasma) on day 1 and day 15
Format: in vivo
Conditions: human, plasma, 100 mg, 100 mg (n = 6), cohort 1, day 1; read-out: Day 1 AUC0-24 Mean (%CV)
Parameter: AUC(0-t) (nM·h)
Supply the numeric figure in nM·h, leaving out any unit text.

Q: What value of measured AUC(0-t) is listed for C[C@H]1CN(C2COC2)CCN1c1ccc(Nc2cc(-c3ccnc(N4CCn5c(cc6c5CC(C)(C)C6)C4=O)c3CO)cn(C)c2=O)nc1 ?
Ans: 670
